experiment: self-splicing fitness, log relative to wild type (ln ratio); higher = more splicing; Tetrahymena group I intron in knt gene, E. coli kanamycin selection, DiMSum; sequences stand for … in CUCUCU…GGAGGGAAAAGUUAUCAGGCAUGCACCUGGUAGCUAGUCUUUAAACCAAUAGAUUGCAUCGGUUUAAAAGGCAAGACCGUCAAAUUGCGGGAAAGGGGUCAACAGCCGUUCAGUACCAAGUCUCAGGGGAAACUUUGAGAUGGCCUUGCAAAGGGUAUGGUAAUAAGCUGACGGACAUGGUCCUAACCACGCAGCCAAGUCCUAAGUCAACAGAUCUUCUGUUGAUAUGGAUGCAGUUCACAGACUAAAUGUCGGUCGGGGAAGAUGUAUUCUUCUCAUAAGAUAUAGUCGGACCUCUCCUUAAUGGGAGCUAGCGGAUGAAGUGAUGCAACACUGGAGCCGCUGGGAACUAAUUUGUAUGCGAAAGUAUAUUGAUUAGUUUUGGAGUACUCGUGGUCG; conditions: 37 °C;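 also: selection with 25 µg/mL kanamycin versus none on LB agar overnight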
measurementName: self-splicing fitness (ln)

Here are 2 sequences together with their reported answers.
seq=UUACAGCAAUAUUACGUGAG measurementname="self-splicing fitness (ln)" measured=0.12
seq=AUCUAGCAAUAUUACGACUU measurementname="self-splicing fitness (ln)" measured=0.24

Name the recorded self-splicing fitness (ln) of the item `GCAAAGCAAUAUUACGGUCC` in your answer.
-0.8

Give self-splicing fitness (ln) for the following sequence: `GUCAAGCAAUAUUACGUAUG`
-2.6

Let me know recorded self-splicing fitness (ln) for `CAGUAGCAAUAUUACGGGAU` , thanks.
-3.18

Tell me self-splicing fitness (ln) reported for `GAUUAGCAAUAUUACGGGUC`
-2.78

Please list self-splicing fitness (ln) recorded for the sequence `ACAAAGCAAUAUUACGCGUG`
-0.274

Identify self-splicing fitness (ln) associated with the sequence `GUUGAGCAAUAUUACGAACG`
-1.12

Look up self-splicing fitness (ln) of `UCAUAGCAAUAUUACGAGAC` and report it.
-2.03

Return the recorded self-splicing fitness (ln) value; entry: `CGUAAGCAAUAUUACGUGCG`
-2.17

Give the reported self-splicing fitness (ln) for this sequence. `UCGGAGCAAUAUUACGAGGA`
-0.618

Provide self-splicing fitness (ln) value for the following sequence: `CUUCAGCAAUAUUACGAGUC`
-2.56

* * *

test: self-splicing fitness, log relative to wild type (ln ratio); higher = more splicing; Tetrahymena group I intron in knt gene, E. coli kanamycin selection, DiMSum; sequences stand for … in CUCUCU…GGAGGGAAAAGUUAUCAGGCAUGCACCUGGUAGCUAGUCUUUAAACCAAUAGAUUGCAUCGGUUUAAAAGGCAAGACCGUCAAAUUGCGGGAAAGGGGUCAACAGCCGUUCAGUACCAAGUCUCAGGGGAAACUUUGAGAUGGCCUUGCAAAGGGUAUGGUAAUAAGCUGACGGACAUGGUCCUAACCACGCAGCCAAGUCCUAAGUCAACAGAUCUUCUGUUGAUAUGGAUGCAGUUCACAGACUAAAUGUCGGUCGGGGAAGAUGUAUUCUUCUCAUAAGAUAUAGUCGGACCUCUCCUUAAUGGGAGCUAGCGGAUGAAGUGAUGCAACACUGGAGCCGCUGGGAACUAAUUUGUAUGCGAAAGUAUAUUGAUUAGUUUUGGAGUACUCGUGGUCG; settings: 37 °C
measurementName: self-splicing fitness (ln)

Known self-splicing fitness (ln) results, listed for orientation:
seq=UGACAGCAAUAUUACGCCGU measured=-1.85
seq=UGGCAGCAAUAUUACGAUCU measured=-0.112
seq=AACUAGCAAUAUUACGGAAG measured=-1.49

Using known records, supply self-splicing fitness (ln) for `AAUAAGCAAUAUUACGCACA`
0.253
